Every entry's value here was drawn from PubChem BioAssay AID651628.

- Tested on: Soluble Proteome
- procedure_text: anti-target inhibition in MCF7 proteome, late-stage follow-up, selectivity assay for PAD4 inhibitor project, cell lysate, gel-based fluorescence, soluble and membrane fractions (AID 651628)
- measurement_setup: CA-Rh gel-based ABPP, anti-target count, at 50 µM
Activity calls are given as the source filed them.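 Rule for the calls: active = at least one off-target enzyme showing weaker fluorescent probe labeling in any proteome panel; inactive = no off-target enzyme affected in any panel.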
Outcomes: active, inactive

# molecule, group_label
data = [
    ("NC1=CC(=O)c2ccc(-c3cccc(C(=O)O)n3)nc2C1=O", "inactive"),
    ("COC1=C(Br)C(=O)c2ncccc2C1=O", "active"),
    ("COC1=C(I)C(=O)c2nc(C#N)ccc2C1=O", "active"),
    ("COC1=C(Br)C(=O)c2nc(-c3ccccn3)ccc2C1=O", "active"),
    ("COC1=C(N)C(=O)c2nc(-c3nc(C(=O)O)c(C)c(-c4ccc(OC)c(OC)c4O)c3N)ccc2C1=O", "inactive"),
    ("O=C1C(O)=C(O)C(=O)c2ncccc21", "active"),
    ("COC1=CC(=O)c2nc(C#N)ccc2C1=O", "active"),
    ("COC(=O)c1cccc(-c2ccc3c(n2)C(=O)C(Br)=CC3=O)n1", "inactive"),
    ("COC1=C(N)C(=O)c2ncccc2C1=O", "inactive"),
]
